The measurements presented in this section are drawn from patent US20250353820A1.

# ASSAYED_TARGET: human HSV DNA polymerase UL30 (Human herpesvirus 1 (strain 17) (HHV-1) (Human herpes simplex virus 1), UniProt P04293)
# EXPERIMENTAL_PROTOCOL: biochemical
# CONDITION_CONTEXT: 625 pM HSV polymerase, 20 minutes at room temperature; read-out: HSV-polymerase Biochemical IC50
Can you tell me pIC50 for the items I'm about to list?
One number for each entry, as −log10 of the molar value.

COMPOUND	OBSERVED
Cc1cccc(NS(=O)(=O)C2(CN3CCc4c(C(=O)NCc5ccc(C#N)cc5)nn(C)c4C3=O)CC2)n1 [Example 157]	7.34
CN(CCO)S(=O)(=O)C1(CN2CCc3c(C(=O)NCc4ccc(Cl)cc4)nn(C)c3C2=O)CC1 [Example 144]	7.17
Cn1nc(C(=O)NCc2ccc(Cl)cc2)c2c1C(=O)N(CC1(S(=O)(=O)C(C)(CO)CO)CC1)CC2 [Example 175]	7.57
Cn1nc(C(=O)NCc2ccc(F)cc2)c2c1C(=O)N(CC1(S(=O)(=O)C(C)(C)CO)CC1)CC2 [Example 53]	7.15
Cn1nc(C(=O)NCc2ccc(C#N)cc2)c2c1C(=O)N(CC1(S(=O)(=O)C3CC3)CC1)CC2 [Example 3]	7.26

**Query** Need pIC50, item Cn1nc(C(=O)NCc2ccc(C#N)cc2)c2c1C(=O)N(CC1(S(=O)(=O)N3CCOCC3)CC1)CC2 [Example 124]
**Result** 6.92
